Reference source: the supplement of paper PMC3545927

target_entity: furin, P09958;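 note: purified furin at 1:10 enzyme:substrate in 50 mM HEPES pH 7.5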
Sequence (P09958 whole entry): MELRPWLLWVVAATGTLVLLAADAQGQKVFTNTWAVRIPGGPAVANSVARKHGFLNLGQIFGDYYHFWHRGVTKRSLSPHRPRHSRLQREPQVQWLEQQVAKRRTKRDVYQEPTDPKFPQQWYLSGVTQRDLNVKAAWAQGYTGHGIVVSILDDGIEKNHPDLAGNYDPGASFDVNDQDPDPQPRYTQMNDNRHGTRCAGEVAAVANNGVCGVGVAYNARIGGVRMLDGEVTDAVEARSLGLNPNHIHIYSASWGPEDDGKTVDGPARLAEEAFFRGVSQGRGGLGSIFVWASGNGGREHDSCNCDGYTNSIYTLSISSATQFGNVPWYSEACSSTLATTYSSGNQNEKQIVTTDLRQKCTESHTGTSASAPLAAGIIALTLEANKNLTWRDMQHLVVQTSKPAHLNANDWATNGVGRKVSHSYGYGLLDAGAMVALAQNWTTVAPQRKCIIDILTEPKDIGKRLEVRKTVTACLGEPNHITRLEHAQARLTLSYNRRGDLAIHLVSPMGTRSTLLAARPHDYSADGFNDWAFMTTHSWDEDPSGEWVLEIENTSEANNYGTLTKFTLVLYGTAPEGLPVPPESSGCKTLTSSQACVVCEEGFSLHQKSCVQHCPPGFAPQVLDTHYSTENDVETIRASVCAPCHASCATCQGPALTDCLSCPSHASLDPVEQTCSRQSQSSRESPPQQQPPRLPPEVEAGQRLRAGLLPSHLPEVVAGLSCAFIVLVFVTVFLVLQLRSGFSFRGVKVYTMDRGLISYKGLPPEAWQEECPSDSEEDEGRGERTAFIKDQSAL
assay: furin cleavage Z-score vs untreated control; higher = more cleavage, active = 3.5 or more, inactive = 1 or less, 8 variable residues between constant flanks
conditions_used: 15 min
This is one part of the list. No count for the full screen is at hand.
assay_endpoint: furin cleavage Z-score
The answer should be written as a number, with no unit following it.

Solved cases below.
INSERT INTO results (input_sequence, assay_endpoint, recorded_value) VALUES
  ('CARKVRDKISAGNASASA [FS-1961]', 'furin cleavage Z-score', -1.5),
  ('CARHSRQVLLAGNASASA [FS-2947]', 'furin cleavage Z-score', 2.58),
  ('CARKMRPARLAGNASASA [FS-1260]', 'furin cleavage Z-score', 4.23);

Recorded furin cleavage Z-score (sequence CAIITSLTGRAGNASASA [HC682] ): 0.458
